The values you see were collected from ChEMBL document CHEMBL3576783.

Record form. Attribute: MIC. Fill in for each entry.
# Test system: Enterococcus faecium
# assayRemarks: microbe, parasite or virus in culture
# studyConditions: NCTC 7171
# Description: Antibacterial activity against Enterococcus faecium NCTC 7171 assessed as bacterial growth inhibition after 16-20 hrs by broth microdilution method

# compound, readoutLabel, valueMeasured
data = [
    ("CC1=C(C(N)=O)C(c2ccc(C#N)cc2)n2nc(SCc3ccccc3)nc2N1 (configuration not stated)", "MIC", "16 µg/mL"),
    ("CCc1cccc(C2C(C(N)=O)=C(C)Nc3nc(SCc4ccccc4)nn32)c1 (configuration not stated)", "MIC", "16 µg/mL"),
    ("COc1ccc(C2C3=C(CCCC3=O)Nc3nc(SCc4ccc(F)cc4)nn32)cc1OC (configuration not stated)", "MIC", "> 128 µg/mL"),
    ("CC1=C(C(N)=O)C(c2ccc(N(C)C)cc2)n2nc(SCc3ccc([N+](=O)[O-])cc3)nc2N1 (configuration not stated)", "MIC", "4 µg/mL"),
    ("CC1=C(C(=O)Nc2ccccc2C)C(c2ccc(C)cc2)n2nc(SCc3cccc(C)c3)nc2N1 (configuration not stated)", "MIC", "> 128 µg/mL"),
]

Provide MIC for all items below, preserving their order.
1. CC1=C(C(N)=O)C(c2ccc(N(C)C)cc2)n2nc(Sc3ccccn3)nc2N1 (configuration not stated)
2. CC1=C(C(N)=O)C(c2cccc(OC(F)(F)F)c2)n2nc(SCc3ccccc3)nc2N1 (configuration not stated)
3. CC1=C(C(N)=O)C(c2ccc[nH]2)n2nc(SCc3ccccc3)nc2N1 (configuration not stated)
4. CC1=C(C(N)=O)C(c2ccc(N(C)C)cc2)n2nc(SCc3ccncc3)nc2N1 (configuration not stated)

> 128 µg/mL
16 µg/mL
> 128 µg/mL
128 µg/mL

---

Field: MIC. Provide a value for each of the compounds that follow.
# System: Enterococcus faecium
# assayRemarks: microbe, parasite or virus in culture
# studyConditions: NCTC 7171

// known answers, use as guide
# compound, studyTarget, valueMeasured
measured = [
    ("CC1=C(C(=O)Nc2ccc(C)cc2C)C(c2cccs2)n2nc(SCc3cccc(Cl)c3)nc2N1 (stereo not given)", "Enterococcus faecium", "> 128 µg/mL"),
    ("CC1=C(C(N)=O)C(c2ccccc2)n2nc(SCc3ccccc3)nc2N1 (stereo not given)", "Enterococcus faecium", "> 128 µg/mL"),
    ("CC1=C(C(N)=O)C(c2ccc(N(C)C)cc2)n2ncnc2N1 (stereo not given)", "Enterococcus faecium", "> 128 µg/mL"),
    ("CC1=C(C(N)=O)C(c2ccc(F)cc2)n2nc(SCc3ccccc3)nc2N1 (stereo not given)", "Enterococcus faecium", "128 µg/mL"),
    ("CCc1ccc(C2C(C(N)=O)=C(C)Nc3nc(SCc4ccccc4)nn32)cc1 (stereo not given)", "Enterococcus faecium", "8 µg/mL"),
]

Hi team, please reply with MIC for each item in this list.
1. COC(=O)c1ccc(CSc2nc3n(n2)C(c2ccc(N(C)C)cc2)C(C(N)=O)=C(C)N3)cc1 (stereo not given)
2. CC1=C(C(N)=O)C(c2ccc(CC(C)C)cc2)n2nc(SCc3ccccc3)nc2N1 (stereo not given)
3. CC1=C(C(N)=O)C(c2cccnc2)n2nc(SCc3ccccc3)nc2N1 (stereo not given)
4. CC1=C(C(N)=O)C(C2CCCCC2)n2nc(SCc3ccccc3)nc2N1 (stereo not given)

> 128 µg/mL
8 µg/mL
> 128 µg/mL
> 128 µg/mL

API: value(readout= MIC, system= Enterococcus faecium, query= CC1=C(C(N)=O)C(c2ccc(N(C)C)cc2)n2nc(SCCNC(=O)OCc3ccccc3)nc2N1 (stereo not given) ) > 128 µg/mL
